SYSTEM NAME: prolyl endopeptidase (PEP) (Elizabethkingia meningoseptica, UniProt P27028)
Construct: purchased Seikagaku Corporation, Tokyo, Japan
Sequence (P27028 21-705): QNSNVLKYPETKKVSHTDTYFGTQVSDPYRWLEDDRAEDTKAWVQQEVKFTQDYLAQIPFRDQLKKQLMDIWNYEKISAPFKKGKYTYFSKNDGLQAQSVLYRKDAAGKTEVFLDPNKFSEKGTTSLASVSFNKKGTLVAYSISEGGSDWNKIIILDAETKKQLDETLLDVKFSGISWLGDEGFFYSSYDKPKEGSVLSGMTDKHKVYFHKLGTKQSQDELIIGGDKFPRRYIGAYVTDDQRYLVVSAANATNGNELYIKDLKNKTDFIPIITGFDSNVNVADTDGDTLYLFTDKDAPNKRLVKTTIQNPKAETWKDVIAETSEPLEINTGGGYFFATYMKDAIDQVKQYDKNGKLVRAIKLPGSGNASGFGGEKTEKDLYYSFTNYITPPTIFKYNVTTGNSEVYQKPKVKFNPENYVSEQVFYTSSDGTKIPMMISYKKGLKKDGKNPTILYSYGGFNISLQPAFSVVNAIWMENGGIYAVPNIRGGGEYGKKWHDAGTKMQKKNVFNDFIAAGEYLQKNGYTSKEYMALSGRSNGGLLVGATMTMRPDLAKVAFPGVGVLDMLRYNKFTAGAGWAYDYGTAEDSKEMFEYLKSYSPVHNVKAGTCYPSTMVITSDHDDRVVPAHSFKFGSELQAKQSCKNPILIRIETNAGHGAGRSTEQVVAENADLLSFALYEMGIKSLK
TEST DESCRIPTION: biochemical
pIC50: −log10 of the molar value. No end group written: not given here.
pIC50 values for the sequences below.
PROPERTY LABEL: pIC50

RESIDUES	RECORDED VALUE
NYDNSAGKW [9L, NYDNSAGKW]	3.32
DNYDNSAGKWWVT [13L, DNYDNSAGKWWVT]	3.91
